Hello, the source for this data is ChEMBL document CHEMBL1201862, in case you need it.

# Tested on: COLO 205
# method.summary: NCI tumour cell line growth inhibition, 48 h
Active and inactive are the calls of the source. Rule as the data show it: active = GI50 up to about 1.1 µM and inactive = higher.
Use one of these outcomes when replying: label 1 (active), label 0 (inactive)

INPUT: Query: recorded result category for CCCCCCCCCCCCOCC(COP(=O)(O)OCCN=[N+]=[N-])OC(=O)CCCCCCCCCCC (stereo unspecified) in this test
OUTPUT: label 0

INPUT: Hey, what did the test say about C=CCC1(CN(C)C)CC/C(=C\c2ccc3c(c2)OCO3)C1=O (stereo unspecified) ?
OUTPUT: label 0

INPUT: Dear colleague, could you share the recorded outcome for CCOC(=O)/C(=C\NC#N)c1nc2ccccc2[nH]1 when you have a moment?
OUTPUT: label 0

INPUT: Status in this test for O=[N+]([O-])c1ccc2nc(O)c(/C=C(\O)c3ccccc3)nc2c1 ?
OUTPUT: label 0

INPUT: In this assay, the call recorded for COc1ccc(NC(=O)CC/C(CC(=O)C(C)(C)C)=N\NC(=O)C(N)=O)cc1 was what?
OUTPUT: label 0

INPUT: Hi, sorry to bother you, what did the test record for CC(=O)N1C(=O)CC2(N=C(C)CC2=O)c2ccccc21 (stereo unspecified) ?
OUTPUT: label 0

INPUT: What outcome does the record of this test show for OC(c1ccc(Cl)cc1)(c1ccc(Cl)cc1)c1cncnc1 ?
OUTPUT: label 0

INPUT: Called result for O=C(CC(C(=O)c1cccs1)c1ccsc1)c1ccccc1 (stereo unspecified)
OUTPUT: label 0

INPUT: What is the recorded call for this compound in the test? COc1ccc(CCNC(=O)c2ccccc2C2c3ccc(OCc4ccccc4)cc3Oc3cc(OCc4ccccc4)ccc32)cc1OC
OUTPUT: label 0

INPUT: Hi, do you know how O=C1c2ccccc2C(=O)c2sc(Nc3ccc(Cl)cc3)nc21 came out in this test?
OUTPUT: label 0

INPUT: Which result was noted for this compound in the test: N#C/C(=C/c1ccc2c(c1)OCO2)C(=O)c1ccccc1
OUTPUT: label 0

INPUT: For this compound, state the assay outcome: O=C(O)C1C(C(=O)O)C(C(=O)O)C1C(=O)O (stereo unspecified)
OUTPUT: label 0

INPUT: Hello, I am checking results. What call was entered for Cc1ccc(N(C(=O)CC(=O)NN)C(=O)c2ccccc2Cl)cc1 ?
OUTPUT: label 0

INPUT: Just curious, what result did C#CCOc1c(C(=O)OCC)c(=O)n(C)c2ccccc12 get here?
OUTPUT: label 0

INPUT: Dear all, I need the recorded test outcome for COC(=O)c1nn(C(=N)c2ccc(Cl)cc2)c2c1CCC2 , thank you.
OUTPUT: label 0

INPUT: Which result was noted for this compound in the test: CN/C(=N\CCSCc1nc[nH]c1C)NC#N
OUTPUT: label 0

INPUT: Test call for this compound, please: Cc1nc(Cl)c(CBr)c(Cl)n1
OUTPUT: label 0

INPUT: Short answer needed: outcome of this test for COC(=O)Nc1nc2cc(C(=O)c3cccs3)ccc2[nH]1 ?
OUTPUT: label 1

INPUT: Look up the recorded call for COC1[C@@H](OC(C)=O)[C@@H](NC(=O)C(Cl)(Cl)Cl)C(I)[C@@H](N2C(=O)c3ccccc3C2=O)[C@H]1OC (stereo partly specified) in this test.
OUTPUT: label 0

INPUT: Look up the recorded call for Cc1ccc(S(=O)(=O)N/N=C(/CC(=O)c2c(C)[n+]([O-])c3ccccc3[n+]2[O-])C(=O)Nc2ccc(C)c(C)c2)cc1 in this test.
OUTPUT: label 0

INPUT: Tell me the recorded outcome of this test for CC1(C)CCCC2(C)C3C(O)CC2(C)C(O)C31 (stereo unspecified) .
OUTPUT: label 0
